assay: soluble on expression in E. coli; label from the status in PepcDB or PDB records
Endpoint Name: soluble on expression in E. coli

MGSDKIHHHHHHMPQTAFIWDLDGTLIDSYEAIMEALAVTYRTFGFDFQAEPIRRYIIKESVGKLLDILAKQHGLSSEELKTFFIQEQVKRDDKIKLMPFAKEALQWAKDRGIKQFMYTHKGASTGAVLAELGIVSYFTEILTSVSGFERKPHPQGIFYLLEKYHLDRDRTYYIGDRRLDVEVAENAGIKSINLAQPQSAANQKIDNLQVLTQLKDF    not soluble
MSLKGTYEKSIHIVKKNKYKTIDVVFGNLKEGIPLAEKSINHGTRIIISRGGTYNMLKATYNIPIVEIKVDAYDIIKSYKEVKNSNEPFGIIGFNNVIYGFDIIEEILNKKITMIEIEKEEEIYDAIEKYRKKGINTYIGDTTVAHIVKRLNCKGILIESREENILRAIQQAEQILEATKDEQKREGHHHHHH    not soluble
MESLGSIALFVLVTETRSFTLAGKRLGISSSGVGKSVGRLEESLGVRLFHRSTRSIALTLEGSIFLDRCRRILSELDAAQLELSNARDLPKGRLRISVPLVFGLVMPVVIQFMRTYPEIELDIDFSDRMVDIIDEGFDVVLRTGEPSDSRLMSKRMGSFQLCIVGSPDYFARHGLPEQPADLIHHACLQHKFPSTGKFEHWPLRREPGSEDFELPQTMVCNTTEVLVEVARAGLGITCLPDFMLASAIRKGELIPILSDYTLHTGSFRLFWASSKHLSVRLRVFIDFMHANLFAPARVGQEGRS    not soluble

###

assay: soluble on expression in E. coli; label from the status in PepcDB or PDB records
Endpoint Name: soluble on expression in E. coli

Recorded soluble on expression in E. coli, per entry:
SLSWLTTHFVVTNRRVMFRHGVLTRSGIDIPLARINSVEFRDRIFERIFRTGTLIIESASQDPLEFYNIPRLREVHALLYHEVFDTLGSDESPS    soluble
MRGSHHHHHHTDPALRASSNTFTLGTKSVNRLGYGAMQLAGPGVFGPPRDRHVAITVLREALALGVNHIDTSDFYGPHVTNQIIREALYPYSDDLTIVTKIGARRGEDASWLPAFSPAELQKAVHDNLRNLGLDVLDVVNLRVMMGDGHGPAEGSIEASLTVLAEMQQQGLVKHIGLSNVTPTQVAEARKIAEIVCVQNEYNIAHRADDAMIDALAHDGIAYVPFFPLGGFTPLQSSTLSDVAASLGATPMQVALAWLLQRSPNILLIPGTSSVAHLRENMAAEKLHLSEEVLSTLDGISREGLCGR    soluble
MSLTNDERILSWNETPSKPRYTPPPGAIDAHCHVFGPMAQFPFSPKAKYLPRDAGPDMLFALRDHLGFARNVIVQASCHGTDNAATLDAIARAQGKARGIAVVDPAIDEAELAALHEGGMRGIRFNFLKRLVDDAPKDKFLEVAGRLPAGWHVVIYFEADILEELRPFMDAIPVPIVIDHMGRPDVRQGPDGADMKAFRRLLDSREDIWFKATCPDRLDPAGPPWDDFARSVAPLVADYADRVIWGTDWPHPNMQDAIPDDGLVVDMIPRIAPTPELQHKMLVTNPMRLYWSEEMEGHHHHHH    soluble
MSHHKLEVKNLSFTYPDGHKAIDGISFTVRHGESVGIVGENGAGKSTLLLVLMGVLFPNQGEVRVGDVRVTKKTLPLIRQRLGMVFQNPDDQLFMTTVYDDVAFGPRNYKLDEKEVEDRVMKSLDMVGISHLKDKAPYKLSGGEKRAAAIATVLSMQPDILVMDEPTSSLDPRSRRRVMELLKNFEHTKIITSHDLDMVLEICERTIVLKQGKVAADGLTSEILADKELMNTCGLEVPLALQGCPVCGEKKKYV    soluble
MGSSHHHHHHSSGRENLYFQGVLGAGCIGGSIALKLKEKHHVTAFDRDEETMKALEENGIETVSKESDLYDTDLLVLALPMSVEERFLKETDFSGKILDVASVKTPFMEIARERGLNFTGGHPMAGNERKGKSGWDREMFDGKIFFLCSLDGKEDGMIENIVKDLGARPLWIDYRIHDEIVAAVSHVQYLISLSARYVGKPFEEYAGPGYLSNTRLSKQNMEMALDMIRYNKENILKYLENARNFLNVLYHLTEKEDFENLKKVIREVI    soluble

Prompt line: Find the measured soluble on expression in E. coli of MSLFRLVFVMDIFNRNVVLAKGGIRENYRPVSDSSAVCRTSDPLEILEILRPKEVYIADLNVLQGKGPLDMNAEIIREVSFKADTMLDSGVSSSKDVDRALSIAGTAVIGTETGTLEVIKDSISRNPGRISVSIDIKHGKLLKQDPKIPEDPFEIVKILNRLPLKDLIFLDLDRVGTASGFDPEFLRKLAESSAHDVLLAGGVRGMKDLFALDSLGIKGALVATAIHSGEVSPEVMTLGLKKEGHHHHHH and report it.
Response line: soluble

Prompt line: Find the measured soluble on expression in E. coli of MGSDKIHHHHHHMNTDSPLKAIQPPADEQAWAVRARRQFEAEQLLYAYVEYIDDDRLEELPELFTEDGSYQIISRENVERGLPAPTMGCSNRNMLIDRIVSLRHANIYSQHAYRHVLSNVRVKAMEGDEALVQSNYVVMATRGDGIARVYSTGKYVDRLVFEEDGPKFKQKRVIFDTQLIDTLLVRPL and report it.
Response line: not soluble

Prompt line: Find the measured soluble on expression in E. coli of MGSDKIHHHHHHMSEAPHLTFDLDTPGVSTGHLVVPKGADCEALSLPVFSCNRGEGPSLLITGGNHGNELQGPILARRLVKWLPEAQRCGRIIIVPEINPLAVQAWTRNTPIDGKNLNRVFPGRSDGSVSERIADAISRLLLPVVDTVLDLHSFGPTWDCAPSIISHPIADIDQMTKTVSISKAFKLPVTLLWEHNETDGMFDTLVHRQGKTFICTEFGGGVVSAEALTIYEAGVRNGLIALGLVKGKAEYPTFRQQKTGQTLETTSSDQLKSPSPGIFEPRCSVMDEVEQGDVVGVLHPMGSLSAASIDIRAQSKSTVFAIRSAMYVQGNEEVAILARPLAR and report it.
Response line: not soluble

Prompt line: Find the measured soluble on expression in E. coli of MGRYSVKRYKTKRRTRDLDLIYNDLSTKESVQKLLNQPLDETKPGLGQHYCIHCAKYMETAIALKTHLKGKVHKRRVKELRGVPYTQEVSDAAAGYNLNKFLNRVQEITQSVGPEKESNEALLKEHLDSTLANVKTTEPTLPWAAADAEANTAAVTEAESTASAST and report it.
Response line: soluble

Prompt line: Find the measured soluble on expression in E. coli of MTETIKCIGCGVEIQTEDKNEVGYAPASSLEKEQVICQRCFRLKHYNEIQDVSLTDDDFLRILNGIGKSDALVVKIVDIFDFNGSWLPGLHRFVGNNKVLLVGNKADLIPKSVKHDKVKHWMRYSAKQLGLKPEDVFLISAAKGQGIAELADAIEYYRGGKDVYVVGCTNVGKSTFINRMIKEFSDETENVITTSHFPGTTLDLIDIPLDEESSLYDTPGIINHHQMAHYVGKQSLKLITPTKEIKPMVFQLNEEQTLFFSGLARFDYVSGGRRAFTCHFSNRLTIHRTKLEKADELYKNHAGDLLSPPTPEELENMPELVKYEFNIREPKTDVVFSGLGWVTVNEPGAKIVAHVPKGVSVSLRKSLILEHHHHHH and report it.
Response line: not soluble

Prompt line: Find the measured soluble on expression in E. coli of MRLVIHGKNIDITDGIRSYLNQKIERATSHFQNVINEVDVHLSVARNRSTAPKQTAEVTVFVNGSVIRAEESSENLYASIDLVADKIARKLRKLKEKRQDKSRAKDTNSVVEPEVVTDLVGDRTPQLPEQVVRMKYFAMPPMTIQEALEHLEMVDHDFYVFRNRDTGEINVVYERNHGGYGVIQPRPTSNNHHHNTADAAAKATAKAGPLEHHHHHH and report it.
Response line: soluble
